- ASSAY_NOTES: cytotoxicity in HPDE-C7 cells, cell-based, fluorescence, HTS (AID 430);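 note: cells exposed to compound for 48 hours before viability readout; 0% = vehicle and 100% = reference cytotoxic drug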
- ASSAY_SETUP: HPDE-C7 pancreatic duct cells viability, at 10 µM, active compounds read high
About 1,100 (1.7%) of roughly 63,000 compounds were called active. The sample as a whole holds a higher share of actives than the screen did. Potency and affinity values are given separately.
cytotoxicity values by entry
Give the quantity in %, number only.

Record excerpt, results attached:
OC1(Cc2ccn[nH]2)CCCCC1 = 17.9
Cn1nnnc1Sc1nc(-c2cccnc2)nc2ccccc12 = 99.3
Cc1ccccc1-n1c(C)nc2ccccc21 = -11.6
CCOC(=O)c1c(C)oc2ccc(NS(=O)(=O)c3ccc4c5c(cccc35)C(=O)N4)cc12 = 64.4
Fc1ccc(-c2nnc(-c3ccc(Cl)cc3Cl)o2)cc1 = 1.1
COCCOC(=O)c1c(C)oc2ccc(NS(=O)(=O)c3ccccc3)cc12 = 12.7
Cc1cc2c(cc1C)NC(CC(=O)NCc1ccccc1)C(=O)N2 (centres undefined) = 1.1
CCCCCn1c(SCCN2CCOCC2)nc2c1c(=O)[nH]c(=O)n2C = 5.5

Lookup: Would you kindly share the measured cytotoxicity for CN1CCN(c2nc(-c3cccnc3)nc3ccccc23)CC1 ?
Found: -0.2

###

- ASSAY_NOTES: cytotoxicity in HPDE-C7 cells, cell-based, fluorescence, HTS (AID 430)
- ASSAY_SETUP: HPDE-C7 pancreatic duct cells viability, at 10 µM, active compounds read high
The whole screen tested about 63,000 compounds, of which about 1,100 (1.7%) were called active. The sample as a whole holds a higher share of actives than the screen did. Entries with a potency or affinity are not part of this list.
PROPERTY_MEASURED: cytotoxicity (%)
Give the quantity in %, number only.

Lookup: Would you kindly share the measured cytotoxicity for CC1(C)Cc2c(C#N)c(N3CCN(C(=O)c4ccco4)CC3)nc(-c3ccco3)c2CS1 ?
Found: 51.7

Lookup: Would you kindly share the measured cytotoxicity for COc1cccc(NC(=O)c2ccccc2-c2nc(-c3cccc(C)c3)no2)c1 ?
Found: 24.8

Lookup: Would you kindly share the measured cytotoxicity for Cc1cccc(N2CCN(C(=O)C3CCCN(S(=O)(=O)c4c(C)noc4C)C3)CC2)c1C (stereo not given) ?
Found: -2

Lookup: Would you kindly share the measured cytotoxicity for O=C(CN1C(=O)c2ccccc2S1(=O)=O)N1CCN(Cc2ccc3c(c2)OCO3)CC1 ?
Found: -4.2

Lookup: Would you kindly share the measured cytotoxicity for CCc1nc(N2CCN(C(=O)c3ccccc3)CC2)c(C#N)c2c1COC(C)(C)C2 ?
Found: -1

Lookup: Would you kindly share the measured cytotoxicity for O=C(Nc1ccc(Oc2ccc(S(=O)(=O)N3CCOCC3)cn2)cc1)c1ccco1 ?
Found: 2.4

###

- ASSAY_NOTES: cytotoxicity in HPDE-C7 cells, cell-based, fluorescence, HTS (AID 430)
- ASSAY_SETUP: HPDE-C7 pancreatic duct cells viability, at 10 µM, active compounds read high
In all, about 63,000 compounds went through this assay and about 1,100 (1.7%) were called active. The entries come from a sample that favours actives as a whole. Entries with a potency or affinity are not part of this list.
cytotoxicity less than 10% is Criterion met; cytotoxicity greater than or equal to 10% is Criterion not met.

COCCOC(=O)c1[nH]c2c(c1C)C(=O)CC(c1cc(OC)ccc1OC)C2 (stereo unspecified) = Criterion not met
Cc1nc2sc(C(c3ccccc3)N3CCC(O)CC3)c(O)n2n1 (stereo unspecified) = Criterion met
COc1ccccc1C1c2c(oc3ccc(Cl)cc3c2=O)C(=O)N1c1cc(C)on1 (stereo unspecified) = Criterion met
COC(=O)c1[nH]c2c(c1C)C(=O)CC(c1cc(OC)ccc1OC)C2 (stereo unspecified) = Criterion not met

Lookup: Does O=C(c1cccc2ccccc12)N1CCN(CC2CC=CCC2)CC1 (stereo unspecified) have cytotoxicity strictly under 10%?
Found: Criterion met

###

- ASSAY_NOTES: cytotoxicity in HPDE-C7 cells, cell-based, fluorescence, HTS (AID 430)
- ASSAY_SETUP: HPDE-C7 pancreatic duct cells viability, at 10 µM, active compounds read high
In all, about 63,000 compounds went through this assay and about 1,100 (1.7%) were called active. The sample as a whole holds a higher share of actives than the screen did. Results with a measured potency or affinity are listed apart.
PROPERTY_MEASURED: cytotoxicity (%)
Give the quantity in %, number only.

Record excerpt, results attached:
COc1cc(OC)cc(-c2nnc(SCC(=O)N3c4ccccc4Sc4ccccc43)o2)c1 = -10.6
O=C(c1ccccc1F)N1CCN(S(=O)(=O)c2ccc(S(=O)(=O)N3CCCCC3)cc2)CC1 = -2.6
Nc1nc(-c2ccccc2)cc(C(F)(F)F)n1 = -0.7
COc1cccc(C2=CC(c3cccc(OC)c3OC)n3nnnc3N2)c1 (stereo not drawn) = 71.4
O=C(c1cccs1)N1CCN(S(=O)(=O)N2CCOCC2)CC1 = -21.3

Lookup: Would you kindly share the measured cytotoxicity for CCN(CC)S(=O)(=O)c1ccc2[nH]cc(C(=O)NCCN3CCCCC3C)c(=O)c2c1 (stereo not drawn) ?
Found: 0

Lookup: Would you kindly share the measured cytotoxicity for COc1cccc(C2=CC(c3ccc(OC)c(OC)c3OC)n3nnnc3N2)c1 (stereo not drawn) ?
Found: -3.9

Lookup: Would you kindly share the measured cytotoxicity for CC1Cc2nc(SCC(=O)N3CCc4ccccc43)n(C)c(=O)c2S1 (stereo not drawn) ?
Found: -19.6

Lookup: Would you kindly share the measured cytotoxicity for CCC(=O)N1CCc2cc(S(=O)(=O)NCCN3CCC(C)CC3)ccc21 ?
Found: -1.8

Lookup: Would you kindly share the measured cytotoxicity for O=C(CCN1c2ccccc2Sc2ccccc21)OCc1nnc(-c2ccccc2)o1 ?
Found: 5.5

###

cytotoxicity values by entry
- ASSAY_NOTES: cytotoxicity in HPDE-C7 cells, cell-based, fluorescence, HTS (AID 430);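 note: cells exposed to compound for 48 hours before viability readout; 0% = vehicle and 100% = reference cytotoxic drug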
- ASSAY_SETUP: HPDE-C7 pancreatic duct cells viability, at 10 µM, active compounds read high
About 1,100 (1.7%) of roughly 63,000 compounds were called active. The full list was thinned out, with actives kept by preference. Results with a measured potency or affinity are listed apart.
Give the quantity in %, number only.

Record excerpt, results attached:
CCCCn1c(=O)[nH]c(=O)c2c1nc(COC(=O)c1c(C)noc1C)n2CCC = -7
CCC(c1nnnn1CCc1ccccc1)N(Cc1ccco1)Cc1cc2cc(C)cc(C)c2[nH]c1=O (stereo unspecified) = 10.7
COc1cccc(CNC(=O)c2nnn(CC(=O)Nc3ccc(C)c(C)c3)c2N)c1 = 0.7
CCc1nc(N2CCN(C(=O)c3ccco3)CC2)c2oc3ccccc3c2n1 = 22.2
CCc1nnc(NC(=O)C2CCN(c3nccc(C)n3)CC2)s1 = -2.7
CCCOc1c(OC)cccc1C1CC(=O)Nc2cc3c(cc21)OCCO3 (stereo unspecified) = 70.1

Lookup: Would you kindly share the measured cytotoxicity for Cc1nc2ccccc2c(=O)n1NC(=O)c1ccc(F)cc1Cl ?
Found: -0.2

Lookup: Would you kindly share the measured cytotoxicity for O=C1CC(c2ccc3c(c2)OCO3)c2cc3c(cc2N1)OCO3 (stereo unspecified) ?
Found: -5.6

Lookup: Would you kindly share the measured cytotoxicity for CC(=O)O[C@@]12CO[C@@H]1C[C@H](O)[C@@]1(C)C(=O)[C@H](O)C3=C(C)[C@@H](OC(=O)[C@H](O)[C@@H](NC(=O)OC(C)(C)C)c4ccccc4)C[C@](O)([C@@H](OC(=O)c4ccccc4)[C@H]21)C3(C)C ?
Found: 51.5

Lookup: Would you kindly share the measured cytotoxicity for CCc1nc2c(n1O)CCc1nonc1-2 ?
Found: 3.5

###

- ASSAY_NOTES: cytotoxicity in HPDE-C7 cells, cell-based, fluorescence, HTS (AID 430);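 note: cells exposed to compound for 48 hours before viability readout; 0% = vehicle and 100% = reference cytotoxic drug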
- ASSAY_SETUP: HPDE-C7 pancreatic duct cells viability, at 10 µM, active compounds read high
Hit rate of the full screen: of about 63,000 compounds, about 1,100 (1.7%) were called active. The list comes from a sample in which actives are over-represented; it also holds close analogues and randomly drawn compounds. Results with a measured potency or affinity are listed apart.
cytotoxicity values by entry
Give the quantity in %, number only.

Lookup: Would you kindly share the measured cytotoxicity for COc1ccc(C(=O)CSc2nnc(-c3cc4ccccc4cc3O)n2Cc2ccco2)cc1 ?
Found: 55.6

Lookup: Would you kindly share the measured cytotoxicity for CCOC(=O)c1cnn2c(C)cc(-c3ccc(F)cc3)nc12 ?
Found: -7.6

Lookup: Would you kindly share the measured cytotoxicity for COc1ccc(-c2cc(C(F)(F)F)nc(SCCC(=O)NCc3ccco3)n2)cc1 ?
Found: -3.2

Lookup: Would you kindly share the measured cytotoxicity for OCCN(CC(O)Cn1ccc2ccccc21)CC(O)Cn1ccc2ccccc21 (configuration not stated) ?
Found: -4.1

###

- ASSAY_NOTES: cytotoxicity in HPDE-C7 cells, cell-based, fluorescence, HTS (AID 430);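 note: cells exposed to compound for 48 hours before viability readout; 0% = vehicle and 100% = reference cytotoxic drug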
- ASSAY_SETUP: HPDE-C7 pancreatic duct cells viability, at 10 µM
Among all 63,000 compounds or so, about 1,100 (1.7%) were called active. Rule as the data show it: active = cytotoxicity above about 50%; inactive = the rest. The full list was thinned out, with actives kept by preference. Measured potencies and affinities stand elsewhere.
The categories you may choose from are active, inactive

O=C(CN1C(=O)C2C3C=CC(C3)C2C1=O)NCCN1CCCc2ccccc21 (stereo not given) = inactive

Lookup: Check the results log: what was the call for Cc1csc(C(C#N)C(=O)c2ccncc2)n1 (stereo not given) ?
Found: inactive

Lookup: Check the results log: what was the call for CCCN(CCC)S(=O)(=O)c1ccc(C(=O)Nc2nnc(-c3cc(OC)cc(OC)c3)o2)cc1 ?
Found: inactive

Lookup: Check the results log: what was the call for COCCn1c(N)c(C(=O)NCc2cccs2)c2nc3ccccc3nc21 ?
Found: inactive
